Target: K-Ras G12V (Homo sapiens, UniProt P01116, G12V)
Sequence (P01116 1-188 isoform P01116-2 G12V): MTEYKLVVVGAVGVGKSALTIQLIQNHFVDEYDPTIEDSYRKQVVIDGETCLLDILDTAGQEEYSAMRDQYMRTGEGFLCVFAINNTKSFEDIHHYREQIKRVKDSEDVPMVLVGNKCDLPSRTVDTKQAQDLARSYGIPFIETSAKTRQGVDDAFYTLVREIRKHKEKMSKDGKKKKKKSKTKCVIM
Experiment: HTRF resonance energy transfer assay, K-Ras G12V / SOS1 interaction
Details: HTRF assay of Example 5; read-out: IC50 against K-Ras G12V
Source text: This assay can be also used to assess a selective inhibition or reduction of signaling output of a mutant Ras protein relative to a wildtype, or relative to a different mutant Ras protein. For example, the equilibrium interaction of wildtype Kras or K-Ras mutant (e.g., wildtype or a mutant thereof) with SOS1 (e.g., hSOS1) can be assessed as a proxy or an indication for a subject compound's ability to bind and inhibit Ras protein. […]
pIC50: −log10 of the molar value.
Measured Metric: pIC50

Compound	Result
C=C[C@H]1COc2c(Cl)c(-c3ccc(F)c4sc(N)c(C#N)c34)c(F)c3nc(OC[C@@]45CCCN4C[C@H](F)C5)nc(c23)N1CC(F)F (single isomer, unassigned)	> 7.00
CCC1CC(N2CCOc3c(Cl)c(-c4ccc(F)c5sc(N)c(C#N)c45)c(F)c4nc(OC[C@@]56CCCN5C[C@H](F)C6)nc2c34)CCO1 (stereo partly shown)	> 7.00
CS(=O)(=O)N1CCC(N2CCOc3c(Cl)c(-c4ccc(F)c5sc(N)c(C#N)c45)c(F)c4nc(OC[C@@]56CCCN5C[C@H](F)C6)nc2c34)C1 (stereo partly shown)	> 7.00
C[C@H]1CN(CCN(C)C)c2nc(OC[C@@]34CCCN3C[C@H](F)C4)nc3c(F)c(-c4ccc(F)c5sc(N)c(C#N)c45)c(Cl)c(c23)O1	> 7.00
C[C@H]1COc2c(Cl)c(-c3ccc(F)c4sc(N)c(C#N)c34)c(F)c3nc(OC[C@@]45CCCN4C[C@H](F)C5)nc(c23)N1C1CCN(C(=O)C2CC2C#N)CC1 (stereo partly shown)	> 7.00
CC1(O)CC(N2CCOc3c(Cl)c(-c4ccc(F)c5sc(N)c(C#N)c45)c(F)c4nc(OC[C@@]56CCCN5C[C@H](F)C6)nc2c34)C1 (stereo partly shown)	> 7.00
N#Cc1c(N)sc2c(F)ccc(-c3c(Cl)c4c5c(nc(OC[C@@]67CCCN6C[C@H](F)C7)nc5c3F)N([C@H]3CNC[C@@H]3F)CCO4)c12	> 7.00
N#Cc1c(N)sc2c(F)ccc(-c3c(Cl)c4c5c(nc(OC[C@@]67CCCN6C[C@H](F)C7)nc5c3F)N(C3CCN(C(=O)[C@H]5CCCO5)C3)CCO4)c12 (stereo partly shown)	> 7.00
CN(CCCN1CCOc2c(Cl)c(-c3ccc(F)c4sc(N)c(C#N)c34)c(F)c3nc(OC[C@@]45CCCN4C[C@H](F)C5)nc1c23)C(=O)[C@H]1CN1	> 7.00
N#Cc1c(N)sc2c(F)ccc(-c3c(Cl)c4c5c(nc(OC[C@@]67CCCN6C[C@H](F)C7)nc5c3F)N(CC(F)F)C(CCO)CO4)c12 (single isomer, unassigned)	> 7.00
C[C@H]1COc2c(Cl)c(-c3ccc(F)c4sc(N)c(C#N)c34)c(F)c3nc(OC[C@@]45CCCN4C[C@H](F)C5)nc(c23)N1CC1CC1C#N (stereo partly shown)	> 7.00
C[C@H]1CN([C@@H]2CCOC2)c2nc(OC[C@@]34CCCN3C[C@H](F)C4)nc3c(F)c(-c4ccc(F)c5sc(N)c(C#N)c45)c(Cl)c(c23)O1	> 7.00
N#Cc1c(N)sc2c(F)ccc(-c3c(Cl)c4c5c(nc(OC[C@@]67CCCN6C[C@H](F)C7)nc5c3F)N(C3CCCN(C(=O)C(F)F)C3)CCO4)c12 (stereo partly shown)	> 7.00
CC1COc2c(Cl)c(-c3ccc(F)c4sc(N)c(C#N)c34)c(F)c3nc(OC[C@@]45CCCN4C[C@H](F)C5)nc(c23)N1[C@@H]1CCOC1 (stereo partly shown)	> 7.00
N#Cc1c(N)sc2c(F)ccc(-c3c(Cl)c4c5c(nc(OC[C@@]67CCCN6C[C@H](F)C7)nc5c3F)N(C3CCN(C(=O)C5CC5C#N)CC3)CCO4)c12 (stereo partly shown)	> 7.00
N#Cc1c(N)sc2c(F)ccc(-c3c(Cl)c4c5c(nc(OC[C@@]67CCCN6C[C@H](F)C7)nc5c3F)N[C@@H](C3(O)CC3)CO4)c12	> 7.00
CC(C)(O)C1COc2c(Cl)c(-c3ccc(F)c4sc(N)c(C#N)c34)c(F)c3nc(OC[C@@]45CCCN4C[C@H](F)C5)nc(c23)N1CCC(F)F (stereo partly shown)	> 7.00
N#Cc1c(N)sc2c(F)ccc(-c3c(Cl)c4c5c(nc(OC[C@@]67CCCN6C[C@H](F)C7)nc5c3F)N(C3CCOC3)CC(O)CO4)c12 (stereo partly shown)	> 7.00
CN(C)CCN1CCOc2c(Cl)c(-c3ccc(F)c4sc(N)c(C#N)c34)c(F)c3nc(OC[C@@]45CCCN4C[C@H](F)C5)nc1c23	> 7.00
C=C[C@H]1COc2c(Cl)c(-c3ccc(F)c4sc(N)c(C#N)c34)c(F)c3nc(OC[C@@]45CCCN4C[C@H](F)C5)nc(c23)N1C1CCOC1 (stereo partly shown) [Compound 726]	> 7.00
C[C@H](Oc1nc2c3c(c(Cl)c(-c4ccc(F)c5sc(N)c(C#N)c45)c(F)c3n1)OCCN2C1CCN(C(=O)C2CC2C#N)CC1)[C@@H]1CCCN1C (stereo partly shown)	> 7.00
CN(CCN1CCOc2c(Cl)c(-c3ccc(F)c4sc(N)c(C#N)c34)c(F)c3nc(OC[C@@]45CCCN4C[C@H](F)C5)nc1c23)C(=O)C1COC1	> 7.00
